# Target System: FUS(1-526)[P525L]-NLUC-FLAG (UniProt P35637 P35637:1-526, P525L)
# Sequence (P35637 whole entry P525L, one chain of several): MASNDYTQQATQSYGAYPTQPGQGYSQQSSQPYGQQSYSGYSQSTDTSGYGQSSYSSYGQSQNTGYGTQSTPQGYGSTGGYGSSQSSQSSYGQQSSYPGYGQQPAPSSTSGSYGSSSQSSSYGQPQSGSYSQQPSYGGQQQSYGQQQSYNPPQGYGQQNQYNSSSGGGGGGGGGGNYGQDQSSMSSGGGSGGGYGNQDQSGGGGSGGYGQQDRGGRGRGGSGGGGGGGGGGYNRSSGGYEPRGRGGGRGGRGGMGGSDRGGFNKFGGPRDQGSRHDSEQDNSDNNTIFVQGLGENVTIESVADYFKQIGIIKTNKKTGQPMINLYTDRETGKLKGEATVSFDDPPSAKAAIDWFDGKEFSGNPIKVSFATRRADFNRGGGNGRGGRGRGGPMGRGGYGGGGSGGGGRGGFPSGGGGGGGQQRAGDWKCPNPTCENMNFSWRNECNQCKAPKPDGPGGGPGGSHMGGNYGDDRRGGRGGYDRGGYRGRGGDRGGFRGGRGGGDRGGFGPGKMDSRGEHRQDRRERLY
# Assay Method Text: competition; competitive nanoBRET vs AF594-JB39; reported as KD (50% dissociation of BRET pair); table prints NLUC-HA, text NLUC-FLAG
# Measurement Parameters: tags: C-terminal NLUC-FLAG; PURExpress
Assignment: determine reported IC50 for the given binders.
Give the value in nM but do not write nM after it.

[Q] Report IC50 for CTGCTAGCCTCTGGATTTGA (ssDNA, full PS) [JB41 (DNA, phosphorothioate)] please.
[A] 0.4

[Q] Recorded IC50 of CUGCUAGCCUCUGGAUUUGA (ssRNA, full PS) [JB42 (RNA, phosphorothioate)] , please.
[A] 7.2
